- test details: cells
- condition notes: Homo sapiens, MCF-10A, read-out: MCF10A IC50
pIC50: −log10 of the molar value.
outcome measure: pIC50

Record excerpt, results attached:
{"columns": ["compound", "observed measurement"],
 "data": [
  ["O=C(Nc1cc(N2CCn3ncnc3C2)cc2c1C(c1cc(F)ccc1Cl)NC2=O)c1cc(F)cc(C(F)(F)F)c1 (stereo not shown)", "5.30 to 6.00"],
  ["O=C(Nc1cc(NC2=NCC(C(F)(F)F)O2)cc2c1C(c1cc(F)ccc1Cl)NC2=O)c1cc(F)cc(C(F)(F)F)c1 (stereo not shown)", "5.30 to 6.00"],
  ["O=C(Nc1cc(-c2ccc3ncnn3c2)cc2c1[C@H](c1cc(F)cc(F)c1Cl)NC2=O)c1cc(F)cc(C(F)(F)F)c1 (stereo in doubt)", "> 6.00"],
  ["O=C(Nc1cc(Nc2ncco2)cc2c1C(c1cc(F)ccc1Cl)NC2=O)c1cc(F)cc(C(F)(F)F)c1 (stereo not shown)", "> 6.00"],
  ["Cc1nccn1-c1cc(NC(=O)N2C[C@@](O)(C(F)(F)F)c3cc(F)ccc32)c2c(c1)C(=O)N[C@@H]2c1cc(F)ccc1Cl (single isomer, unassigned)", "> 6.00"]
]}

Prompt line: State the recorded pIC50 for this entry: O=C1NC(c2cc(F)ccc2Cl)c2c(NC(=O)N3CC(O)c4ccc(Cl)cc43)cccc21 (mixture of isomers)
Response line: 5.00 to 5.30

Prompt line: State the recorded pIC50 for this entry: NCCc1cc(NC(=O)N2C[C@@](O)(C(F)(F)F)c3cc(F)ccc32)c2c(c1)C(=O)N[C@H]2c1cc(F)ccc1Cl (single isomer, unassigned)
Response line: 4.44 to 5.00

Prompt line: State the recorded pIC50 for this entry: Cn1ncnc1Nc1cc(NC(=O)c2cc(F)cc(C(F)(F)F)c2)c2c(c1)C(=O)NC2c1cc(F)ccc1Cl (stereo not shown)
Response line: > 6.00

Prompt line: State the recorded pIC50 for this entry: N#CCc1ccc(NC(=O)N2C[C@](O)(C(F)(F)F)c3cc(F)ccc32)c2c1C(=O)N[C@H]2c1cc(F)ccc1Cl (single isomer, unassigned)
Response line: > 6.00

Prompt line: State the recorded pIC50 for this entry: CNc1cc(NC(=O)N2C[C@](O)(C(F)(F)F)c3cc(F)ccc32)c2c(n1)C(=O)N[C@@H]2c1cc(F)ccc1Cl (single isomer, unassigned)
Response line: > 6.00
